target desc: HLA-A*02:06
assay notes: IEDB peptide-MHC binding, purified MHC/competitive/radioactivity; filed as Kd, often an IC50 or EC50 that approximates it; bounds were set here for any values at or beyond the usual limits of such assays
settings: source organism: Pichinde virus strain Munchique
property name: pKd
# reply with the number alone; pKd is -log10 of concentration in mol/L

Indicate the recorded pKd value for this sequence: YTITVFLHL
8.15

---

target desc: HLA-A*02:06
assay notes: IEDB peptide-MHC binding, purified MHC/competitive/radioactivity; filed as Kd, often an IC50 or EC50 that approximates it; bounds were set here for any values at or beyond the usual limits of such assays
settings: source organism: Guanarito virus strain INH-95551
property name: pKd
# reply with the number alone; pKd is -log10 of concentration in mol/L

Write down measured pKd (HLA-A*02:06) for this sequence. GTTSLFLHL
8.30

---

target desc: HLA-A*02:03
assay notes: IEDB peptide-MHC binding, purified MHC/competitive/radioactivity; filed as Kd, often an IC50 or EC50 that approximates it; bounds were set here for any values at or beyond the usual limits of such assays
settings: source organism: Guanarito virus strain INH-95551
property name: pKd
# reply with the number alone; pKd is -log10 of concentration in mol/L

Indicate the recorded pKd value for this sequence: GTTSLFLHL
6.12

---

target desc: HLA-A*02:06
assay notes: IEDB peptide-MHC binding, purified MHC/competitive/radioactivity; filed as Kd, often an IC50 or EC50 that approximates it; bounds were set here for any values at or beyond the usual limits of such assays
settings: source organism: Whitewater Arroyo virus strain AV9310135
property name: Kd
Please provide the amount together with its unit, number first.

Indicate the recorded Kd value for this sequence: YVSSIFLHL
15 nM

---

target desc: HLA-A*68:02
assay notes: IEDB peptide-MHC binding, purified MHC/competitive/radioactivity; filed as Kd, often an IC50 or EC50 that approximates it; bounds were set here for any values at or beyond the usual limits of such assays
settings: source organism: Pichinde virus strain Munchique
property name: pKd
# reply with the number alone; pKd is -log10 of concentration in mol/L

Indicate the recorded pKd value for this sequence: YTITVFLHL
8.30

---

target desc: HLA-A*02:02
assay notes: IEDB peptide-MHC binding, purified MHC/competitive/radioactivity; filed as Kd, often an IC50 or EC50 that approximates it; bounds were set here for any values at or beyond the usual limits of such assays
settings: source organism: Guanarito virus strain INH-95551
property name: Kd (nM)
Lab book: enter the figure in nM, no units written.

Indicate the recorded Kd value for this sequence: GTTSLFLHL
57

---

target desc: HLA-A*02:02
assay notes: IEDB peptide-MHC binding, purified MHC/competitive/radioactivity; filed as Kd, often an IC50 or EC50 that approximates it; bounds were set here for any values at or beyond the usual limits of such assays
settings: source organism: Whitewater Arroyo virus strain AV9310135
property name: Kd

Write down measured Kd (HLA-A*02:02) for this sequence. YVSSIFLHL
≤ 1 nM
